target.entity: biotin labeled hRAGE-Fc (human) (UniProt Q15109)
Sequence (Q15109 24-344): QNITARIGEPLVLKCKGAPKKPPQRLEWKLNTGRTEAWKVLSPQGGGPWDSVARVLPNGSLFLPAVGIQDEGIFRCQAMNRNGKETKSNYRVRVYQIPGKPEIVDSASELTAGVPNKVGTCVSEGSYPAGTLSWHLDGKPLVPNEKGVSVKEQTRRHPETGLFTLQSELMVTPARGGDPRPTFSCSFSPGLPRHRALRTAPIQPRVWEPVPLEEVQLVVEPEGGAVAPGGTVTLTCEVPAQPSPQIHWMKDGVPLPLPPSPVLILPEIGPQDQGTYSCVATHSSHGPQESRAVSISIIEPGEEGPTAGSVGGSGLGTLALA
assay.procedure: HTRF competition; scFv against Eu-cryptate XT-M4 for biotin-hRAGE-Fc
quantity: pIC50
Quick note: pIC50 values are minus log10 of concentrations in mol/L.

Reference set (3 entries):
Reported pIC50 of 6A12 scFv (scFv, from a related filing, part only) scFv: DIQMTQSPSSLSASVGDRVTITCRASQDVGIYVNWFQQKPGKAPRRLIYRATNLADGVPSRFSGSRSGTDFTLTISSLQPEDFATYYCLQYDAHPLTFGGGTKVEIKDGGGSGGGGSGGGGSSEVQLVESGGGLVQPGGSLRLSCAASGFTFNNYWMTWVRQAPGKGLEWVASIDNSGDNTYYPDSVKDRFTISRDNAKNSLYLQMNSLRAEDTAVYYCARGGDITTGFDYWGQGTLVTVSS : 8.08

Recorded result, 3G8 scFv (scFv, from a related filing, part only) scFv: DIQMTQSPSSLSASVGDRVTITCRASQDVGIYVNWFQQKPGKAPRRLIYRATNLADGVPSRFSGSRSGTDFTLTISSLQPEDFATYYCLQYDAHPLTFGGGTKVEIKDGGGSGGGGSGGGGSSEVQLVESGGGLVQPGGSLRLSCAASGFTFNNYWMTWVRQAPGKGLEWVASIDNSGDNTYYPDSVKDRFTISRDNAKNSLYLQMNSLRAEDTAVYYCARGGDITTGFDYWGQGTLVTVSS , pIC50: 8.09

Note to self: pIC50 recorded for 3B7 scFv (scFv, from a related filing, part only) scFv: DIQMTQSPSSLSASVGDRVTITCRASQDVGIYVNWFQQKPGKAPRRLIYRATNLADGVPSRFSGSRSGTDFTLTISSLQPEDFATYYCLQFDSHPLTFGGGTKVEIKDGGGSGGGGSGGGGSSEVQLVESGGGLVQPGGSLRLSCAASGFTFNNYWMTWVRQAPGKGLEWVASIDNSGDNTYYPDSVKDRFTISRDNAKNSLYLQMNSLRAEDTAVYYCARGGDITTGFDYWGQGTLVTVSS was 8.13

Read the next record carefully.
Entry 6C11 scFv (scFv, from a related filing, part only) scFv: DIQMTQSPSSLSASVGDRVTITCRASQDVGIYVNWFQQKPGKAPRRLIYRATNLADGVPSRFSGSRSGTDFTLTISSLQPEDFATYYCLQYDAHPLTFGGGTKVEIKDGGGSGGGGSGGGGSSEVQLVESGGGLVQPGGSLRLSCAASGFTFNNYWMTWVRQAPGKGLEWVASIDNSGDNTYYPDSVKDRFTISRDNAKNSLYLQMNSLRAEDTAVYYCARGGDITTGFDYWGQGTLVTVSS — recorded pIC50 = 8.04
